Heads up, these molecules all have IC50 values measured for EGFR (Homo sapiens, UniProt P00533).

{"columns": ["Molecule", "Study target", "Unit text", "IC50"],
 "data": [
  ["Cc1nnc2n1N=C(c1ccccc1OCC(=O)NCCCNC(=O)COc1ccccc1C1=Nn3c(C)nnc3SC1)CS2 [8i]", "EGFR (Homo sapiens, UniProt P00533)", "nM", 64.7],
  ["O=C(COc1ccccc1C1=Nn2cnnc2SC1)NCCCCNC(=O)COc1ccccc1C1=Nn2cnnc2SC1 [8l]", "EGFR (Homo sapiens, UniProt P00533)", "nM", 78.9],
  ["Cc1nnc2n1N=C(c1ccccc1OCC(=O)NCCNC(=O)COc1ccccc1C1=Nn3c(C)nnc3SC1)CS2 [8d]", "EGFR (Homo sapiens, UniProt P00533)", "nM", 124]
]}
